Catalogue of sequences with associated pre-steady-state target cleavage rate
- Test system: MILI (PIWIL2) piRISC loaded with Kctd7 piRNA (26 nt);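 further: 1 nM active piRISC with 0.1 nM target library at 33 °C single turnover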
- assay.details: pre-steady-state target cleavage rate (min^-1); MIWI and MILI are mouse PIWI proteins and EfPiwi is from a freshwater sponge; tags in brackets are library labels; higher = faster piRNA-guided slicing of the target;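 further: 1 nM active piRISC with 0.1 nM target library at 33 °C single turnover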
- assay.context: guide: Kctd7 piRNA 5'p-UGUUAAUCUCUCAGAGAAGGUGACAG; auxiliary factor: 500 nM mouse GTSF1
The full ranking holds about 3,700 sequences; the median of “pre-steady-state target cleavage rate” is about 0.02, and the highest 2% start at about 0.23. The sample holds the highest values, similar sequences and a random draw of the others, so the mix is not that of the screen.
The response must contain the number and no unit.

// worked examples, pre-steady-state target cleavage rate included
input.sequence	pre-steady-state target cleavage rate
UAGUGUCUCACCUUCUCUGAGAGUUUAACA	0.286
UAGUCUGUCACCUUCUGUGAGAGUUUAACA	0.0702
UAGUGACUCACCUUCUCUGAGAGUUUAACA	0.118
UAGUCUGUCACCUUCUCUGAGAAUUAACA	0.0747
UAGUGUGUCACCUUCUCUGAGAGUUUAACA	0.316

[in] Fill in the recorded pre-steady-state target cleavage rate for this sequence, with MILI (PIWIL2) piRISC loaded with Kctd7 piRNA (26 nt) as test system: UAGUGACACACCUUCUCUCAGACAUUAACA;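 further: 1 nM active piRISC with 0.1 nM target library at 33 °C single turnover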
[out] 0.0383

[in] Quick one: UAGUCUGUCACCUUCUCUGAGAGUUUAACA
[out] 0.238

[in] Please give the result for UAGUGACACACCUUGUCUGAGACAUUAACA too.
[out] 0.0978

[in] Please give the result for UAGUGACACUCCUUCUCUGAGUGAUUAACA too.
[out] 0.00415

[in] Field entry: UAGUGUGUCACCUUCUCUGAGAAUUAACA
[out] 0.0848

[in] Query UAGUGUGUCACCUUCUCUGUGAGUUUAACA next
[out] 0.0386

[in] What do you have for UAGUCUGUCACCUUCUCUGAGAGUAAAACA ?
[out] 0.0676

[in] And for UAGUGUGUCACCUUCUCUGAGAGUUAAACA ?
[out] 0.146

[in] One more sequence: UAGUGUGUCUCCUUCUCUGAGACAUUAACA
[out] 0.00482

[in] Now consider UAGUGUGUCACCUUCUCUGAGAGAGUUAACA .
[out] 0.259

[in] Also check UAGUCUGUCACCUUCUCUGAGAGAUUAAACA
[out] 0.147

[in] Next entry: UAGUCUGUCACCUUCUCUGAGAGUUAAACA
[out] 0.328

[in] Let us now turn to UAGUGACAGACCUACUCUGAGAGAUUUACA
[out] 0.0238

Where these numbers come from: the supplement of paper PMC10338343
